system: UACC-62 melanoma; assay: NCI-60 one-dose screen, 48 h; details: 10 µM unless noted
About 83,000 compounds went through this panel and 20% of them were active in at least one assay; those are over-represented in the sample as a whole. The source made the active and inactive calls. How the source made its calls: active means growth percent below 10; inactive means the rest.
Can you answer with just one of these options? active, inactive

// below: answered compounds
{"Compound": "Cc1nc([P+](c2ccccc2)(c2ccccc2)c2ccccc2)c(Sc2sc(-c3ccccc3)nc2[P+](c2ccccc2)(c2ccccc2)c2ccccc2)o1", "Assayed system": "UACC-62 melanoma", "Classification": "inactive"}
{"Compound": "Cn1cc(-c2nc(-c3c[nH]c4ncccc34)cs2)c2cc(Br)ccc21", "Assayed system": "UACC-62 melanoma", "Classification": "inactive"}
{"Compound": "C/C(=N\\Nc1ccc2ccccc2n1)c1ccccn1", "Assayed system": "UACC-62 melanoma", "Classification": "active"}
{"Compound": "O=C(/C=C\\c1ccc2c(c1)OCO2)/C=C/c1ccc2c(c1)OCO2", "Assayed system": "UACC-62 melanoma", "Classification": "inactive"}
{"Compound": "COC1=C(Br)C(=O)C(OC)=C(Br)C1=O", "Assayed system": "UACC-62 melanoma", "Classification": "inactive"}
{"Compound": "CC(=O)c1c(C)[nH]c(-c2nc3ccc(N4CCN(C)CC4)cc3[nH]2)c1-c1ccc(N(C)C)cc1", "Assayed system": "UACC-62 melanoma", "Classification": "inactive"}
{"Compound": "O=C(CI)Nc1ccc(O)c2ccccc12", "Assayed system": "UACC-62 melanoma", "Classification": "active"}
{"Compound": "CCOc1ccc(NC(=O)c2ccoc2COc2ccccc2)cc1", "Assayed system": "UACC-62 melanoma", "Classification": "inactive"}

Request: Called result for Cc1ccc(S(=O)(=O)Nc2ccc(-c3cc(-c4cccc(F)c4)c(C#N)c(N)n3)cc2)cc1
Response: active

Request: Assay result, entry N#CC1=C(N)Oc2c(c(N)nn2-c2ccccc2)C1c1ccc(Cl)cc1Cl (stereo unspecified) — outcome?
Response: inactive

Request: Hi, sorry to bother you, what did the test record for CC(=O)Nc1cc(F)cc(C(F)(F)F)c1Cl ?
Response: inactive
